test system: 941728-121-R-J1-PDC complex spheroid viability; experiment: Anticancer human tumor 941728-121-R-J1-PDC patient-derived lung adenocarcinoma cell line growth inhibition [RAS]; conditions: second compound 10 µM; first compound 0.01 µM; active compounds read low;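 further: spheroids exposed to compounds for 7 days before readout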
Field: label. Allowed values: condition met (viability, T/C < 20%) or condition not met (viability, T/C >= 20%).

C=CC(=O)Nc1cc(Nc2nccc(-c3cn(C)c4ccccc34)n2)c(OC)cc1N(C)CCN(C)C + C#Cc1c(F)ccc2cc(O)cc(-c3ncc4c(N5CC6CCC(C5)N6)nc(OCC56CCCN5CC(F)C6)nc4c3F)c12: condition not met
O=C(c1ccc(F)c(F)c1Nc1ccc(I)cc1F)N1CC(O)([C@@H]2CCCCN2)C1 + C#Cc1c(F)ccc2cc(O)cc(-c3ncc4c(N5CC6CCC(C5)N6)nc(OCC56CCCN5CC(F)C6)nc4c3F)c12: condition met
Nc1ccn(C2OC(CO)C(O)C2(F)F)c(=O)n1 (stereo unspecified) + C#Cc1c(F)ccc2cc(O)cc(-c3ncc4c(N5CC6CCC(C5)N6)nc(OCC56CCCN5CC(F)C6)nc4c3F)c12: condition not met
CCN1CCN(Cc2ccc(Nc3ncc(F)c(-c4cc(F)c5nc(C)n(C(C)C)c5c4)n3)nc2)CC1 + C#Cc1c(F)ccc2cc(O)cc(-c3ncc4c(N5CC6CCC(C5)N6)nc(OCC56CCCN5CC(F)C6)nc4c3F)c12: condition not met
CC(C)n1nc(-c2ccc3oc(N)nc3c2)c2c(N)ncnc21 + C#Cc1c(F)ccc2cc(O)cc(-c3ncc4c(N5CC6CCC(C5)N6)nc(OCC56CCCN5CC(F)C6)nc4c3F)c12: condition met

Consider the record given below.
// query Just wondering, is viability, T/C of C=CC(=O)N1CCN(c2nc(OCC3CCCN3C)nc3c(F)c(-c4nc(N)cc(C)c4C(F)(F)F)c(Cl)cc23)C(C)C1 (stereo unspecified) + C#Cc1c(F)ccc2cc(O)cc(-c3ncc4c(N5CC6CCC(C5)N6)nc(OCC56CCCN5CC(F)C6)nc4c3F)c12 below 20%?
// result condition not met
